test system: Escherichia coli TOP10; experiment: shrunken log2 fold change of peptide-encoding DNA abundance (4.5 h post-induction vs induction); higher = less antimicrobial activity (less host growth inhibition); settings: time post-induction: 4.5 h; library: site-saturation at positions 5, 18, 19, 20
Parameter class (string): assigned from measured shrunken log2 fold change. Ranges: lower band (below -0.3), central band (-0.3 to below 0.02), upper band (0.02 or more)

Examples from the recorded data:
RRIRTRPPRLPRPRPRPADKPRP ... central band
RRIRKRPPRLPRPRPRPWREPRP ... upper band
RRIRCRPPRLPRPRPRPDIPPRP ... lower band
RRIRGRPPRLPRPRPRPHWEPRP ... upper band
RRIRPRPPRLPRPRPRPWPNPRP ... central band

INPUT: Where would RRIRDRPPRLPRPRPRPAQAPRP land among the classes by reported shrunken log2 fold change?
OUTPUT: central band

INPUT: Same again, this time with RRIRPRPPRLPRPRPRPSQWPRP
OUTPUT: central band

INPUT: Same again, this time with RRIRTRPPRLPRPRPRPDYHPRP
OUTPUT: lower band

----------
tested on: Escherichia coli TOP10; experiment: shrunken log2 fold change of peptide-encoding DNA abundance (4.5 h post-induction vs induction); higher = less antimicrobial activity (less host growth inhibition); conditions: time post-induction: 4.5 h; library: site-saturation at positions 5, 18, 19, 20
measuredEndpoint: shrunken log2 fold change

INPUT: Which shrunken log2 fold change value is on record for RRIRIRPPRLPRPRPRPHRDPRP ?
OUTPUT: -0.236

INPUT: Same again, this time with RRIRERPPRLPRPRPRPDEDPRP
OUTPUT: -0.209

INPUT: Same again, this time with RRIRIRPPRLPRPRPRPLLIPRP
OUTPUT: -0.485

----------
system: Escherichia coli TOP10; assay: shrunken log2 fold change of peptide-encoding DNA abundance (4.5 h post-induction vs induction); higher = less antimicrobial activity (less host growth inhibition); conditions: time post-induction: 4.5 h; library: site-saturation at positions 5, 18, 19, 20
Parameter class (string): assigned from measured shrunken log2 fold change. Ranges: bucket 1: < -0.1; bucket 2: ≥ -0.1 and < 0.2; bucket 3: ≥ 0.2

Examples from the recorded data:
RRIRLRPPRLPRPRPRPEFHPRP ... bucket 1
RRIRQRPPRLPRPRPRPSAPPRP ... bucket 2

INPUT: Where would RRIRQRPPRLPRPRPRPMNDPRP land among the classes by reported shrunken log2 fold change?
OUTPUT: bucket 1

INPUT: Same again, this time with RRIRRRPPRLPRPRPRPHFCPRP
OUTPUT: bucket 2

INPUT: Same again, this time with RRIRWRPPRLPRPRPRPIAMPRP
OUTPUT: bucket 3

INPUT: Same again, this time with RRIRRRPPRLPRPRPRPGQHPRP
OUTPUT: bucket 2

INPUT: Same again, this time with RRIRMRPPRLPRPRPRPKEVPRP
OUTPUT: bucket 2

INPUT: Same again, this time with RRIRCRPPRLPRPRPRPEFPPRP
OUTPUT: bucket 3

----------
test system: Escherichia coli TOP10; experiment: shrunken log2 fold change of peptide-encoding DNA abundance (4.5 h post-induction vs induction); higher = less antimicrobial activity (less host growth inhibition); conditions: time post-induction: 4.5 h; library: site-saturation at positions 5, 18, 19, 20
measuredEndpoint: shrunken log2 fold change
In your answer, state the number alone without any accompanying words.

Recorded shrunken log2 fold change, per entry:
RRIRIRPPRLPRPRPRPVMVPRP ... -0.066
RRIRIRPPRLPRPRPRPEAHPRP ... 0.0771
RRIRHRPPRLPRPRPRPFHNPRP ... -0.305
RRIRERPPRLPRPRPRPNCGPRP ... -0.26
RRIRCRPPRLPRPRPRPPFHPRP ... -0.224
RRIRNRPPRLPRPRPRPQDFPRP ... -0.0385
RRIRCRPPRLPRPRPRPFNEPRP ... -0.799
RRIRLRPPRLPRPRPRPGTKPRP ... 0.2

Now turn to the next sequence.
INPUT: # query: shrunken log2 fold change | item RRIRNRPPRLPRPRPRPPCIPRP | system: Escherichia coli TOP10;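 also: peptides expressed intracellularly from a pBAD plasmid library in pooled LB shake-flask culture, induced with 0.3% L-arabinose, DNA abundance read by NGS, three biological replicates, DESeq2 with apeglm shrinkage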
OUTPUT: -0.662
